These entries and their values trace back to PubChem BioAssay.

Target: Fibroblast growth factor 2 (Homo sapiens) (UniProt P09038)
Sequence (P09038 whole entry, looked up): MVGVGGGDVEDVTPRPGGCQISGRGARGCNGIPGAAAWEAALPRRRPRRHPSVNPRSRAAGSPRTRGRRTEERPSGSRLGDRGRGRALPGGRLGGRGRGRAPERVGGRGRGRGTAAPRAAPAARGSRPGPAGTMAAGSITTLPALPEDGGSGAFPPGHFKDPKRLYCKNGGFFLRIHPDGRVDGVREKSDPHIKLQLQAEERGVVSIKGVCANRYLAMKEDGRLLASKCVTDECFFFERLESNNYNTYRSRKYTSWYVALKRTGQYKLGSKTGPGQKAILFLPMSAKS
Assay: FGF2 binders on small-molecule microarrays, primary screen, biochemical, small-molecule microarray, 635/667 nm fluorescence (AID 1133)
Details: small-molecule microarray binding, FGF2, fluorescence 635/667; higher = more signal
measurement.label: composite z-score
Numbers only.

>>> recorded_measurement("COC(=O)[C@H](C)NC(=O)CCC1CC(OC(=O)NCc2cccc3ccccc23)CC2(CCCC(COC(=O)NCCCN3CCCC3=O)O2)O1 (stereo partly specified)")
0.0982
>>> recorded_measurement("C[C@@H]1CC[C@H]2C(=O)O[C@@H](CN=[N+]=[N-])CN2[C@H]1c1ccc(Br)cc1")
0.376
>>> recorded_measurement("CC(=O)OC[C@H]1O[C@H](C#CCCc2ccccc2)C=C[C@@H]1OC(C)=O")
0.461

Report composite z-score for each item below.
1. COC(=O)CC=C1c2ccccc2[C@H](OC)[C@H]1C
2. O=C1[C@H]2[C@H]3[C@H](O)[C@H](O)CC(=NO[C@@H]4O[C@H](CO)[C@@H](O)[C@H](O)[C@H]4O)[C@H]3CC[C@H]2C(=O)N1C[C@@H]1CCCO1
3. O=C1[C@H]2[C@H]3[C@H](O)[C@H](O)CC(=NO[C@@H]4O[C@H](CO)[C@@H](O)[C@H](O)[C@H]4O)[C@@H]3CC[C@H]2C(=O)N1c1cccc(Oc2ccccc2)c1
4. CO[C@H]1COC(=O)CC=C[C@@H](C)COC(=O)[C@H]2CCCN2C(=O)CC=C[C@H]1C
5. CCOC(=O)CCN1C(=O)[C@H]2[C@H]3[C@H](O)[C@H](O)CC(=NO[C@@H]4O[C@H](CO)[C@@H](O)[C@H](O)[C@H]4O)[C@H]3CC[C@H]2C1=O
6. CON(C)C(=O)c1nnc2c(n1)[nH]c1ccccc12
7. CCN1C(C)=C(C(=O)OC)[C@@H](c2ccccc2)N2C(=O)[C@](O)(C(=O)OC)CC(C(C)=O)=C12
8. CC(CCC(=O)OC[C@H]1O[C@H](C#Cc2ccccc2)C=C[C@@H]1Oc1ccc(C)cc1)=NO[C@H](C)c1cn([C@@H]2COC[C@H]2O)nn1

1: 0.621; 2: 0.182; 3: 0.948; 4: 1.96; 5: 0.599; 6: 0.635; 7: 0.0171; 8: 0.162

Report composite z-score for each item below.
1. CC(CCN1CCc2nc(-c3ccccc3)c(-c3ccccc3)cc2C1)=NO[C@@H](C)c1cc(-c2c(C)cc(C)cc2C)no1
2. C#CCCCON=C1C[C@@H](O)[C@@H](O)[C@@H]2[C@@H]3C(=O)N(C[C@@H]4CCCO4)C(=O)[C@@H]3CC[C@@H]12

-0.44
0.222

Report composite z-score for each item below.
1. CC(C)CON=C1C[C@@H](O)[C@@H](O)[C@@H]2[C@@H]3C(=O)N(Cc4ccc5c(c4)OCO5)C(=O)[C@@H]3CC[C@@H]12
2. C=CC[C@@H]1C=CC(ON=C(C)C)[C@@H](CO)O1 (stereo partly specified)
3. CCOC(=O)[C@H](Cc1ccccc1)NC(=O)CCC1CC(OC(=O)NCCc2ccc(F)cc2)CC2(CCCC(COC(=O)NCCOc3ccccc3)O2)O1 (stereo partly specified)

1. 1.22
2. -0.458
3. 1.24

---

Test: basal HepG2 mitochondrial membrane potential changes, profiling panel, cell-based, JC-1 fluorescence, 24 h, 100 nL compound (AID 1167); note: test concentration not given here
Conditions: higher = more signal
z-score vs -0.7: at or above is true (1), below is false (0).

# count of solved cases: 4
>>> assigned_category("CCN1C(=O)[C@H]2[C@H]3[C@H](O)[C@H](O)CC(=NNC(=O)OCc4ccccc4)[C@@H]3CC[C@H]2C1=O")
"true (1)"
>>> assigned_category("C=CC[C@@H]1C=C[C@H](ON=C(C)CCN2CCCCc3nc(C)c(C)cc32)[C@@H](CO)O1")
"false (0)"
>>> assigned_category("Cc1ccc(C(C)C)n1C(=O)OC(C)(C)C")
"true (1)"
>>> assigned_category("COC(=O)CC=C[C@@H](C)[C@@H](C=NOC[C@@H](C)[C@H](OCc1ccccc1)C(C)C)OC")
"true (1)"

Answer whether z-score of COC(=O)[C@H](C)NC(=O)CCC1CC(OC(=O)NCc2ccc3c(c2)OCO3)CC2(CCCC(COC(=O)NCCCN3CCCC3=O)O2)O1 (stereo partly drawn) is greater than or equal to -0.7.
false (0)

Would you mind doing COc1ccc(OC[C@@H](CO)OC)cc1 as well?
true (1)

Would you mind doing COc1cccc([C@H]2Oc3ccc(OC)cc3C(=NO[C@@H](C)c3cc(-c4c(C)cc(C)cc4C)no3)[C@@H]2O)c1 as well?
false (0)

---

Assay: fission yeast growth modulation, primary screen, strain 972, OD600, 24 h, no modulator (AID 1090);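 note: basal condition with compound alone and no growth modifier present; test concentration not given here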
Conditions: S. pombe 972 growth, higher = more signal, called active from +8 up or from −8 down
Activity calls are given as the source filed them.
measurement.label: z-score

Below: 2 compounds and their reported z-score.
>>> recorded_measurement("COc1ccc(COC(=O)NN=C2C[C@@H](O)[C@@H](O)[C@@H]3[C@@H]4C(=O)N(c5cccc(Oc6ccccc6)c5)C(=O)[C@@H]4CC[C@H]23)cc1")
"-0.655 (inactive)"
>>> recorded_measurement("O=C(NN=C1C[C@@H](O)[C@@H](O)[C@@H]2[C@@H]3C(=O)N(c4ccc(F)cc4F)C(=O)[C@@H]3CC[C@H]12)OCc1ccccc1")
"-2.08 (inactive)"

API: the following record is the query input.
Given the compound COC(=O)[C@H](C)NC(=O)CCC1CC(OC(=O)NCc2ccc3c(c2)OCO3)CC2(CCCC(COC(=O)NCCC(C)C)O2)O1 (stereo partly drawn) , what is its reported z-score?
-0.031 (inactive)

---

Target: Follistatin (Homo sapiens) (UniProt P19883)
Sequence (P19883 whole entry, looked up): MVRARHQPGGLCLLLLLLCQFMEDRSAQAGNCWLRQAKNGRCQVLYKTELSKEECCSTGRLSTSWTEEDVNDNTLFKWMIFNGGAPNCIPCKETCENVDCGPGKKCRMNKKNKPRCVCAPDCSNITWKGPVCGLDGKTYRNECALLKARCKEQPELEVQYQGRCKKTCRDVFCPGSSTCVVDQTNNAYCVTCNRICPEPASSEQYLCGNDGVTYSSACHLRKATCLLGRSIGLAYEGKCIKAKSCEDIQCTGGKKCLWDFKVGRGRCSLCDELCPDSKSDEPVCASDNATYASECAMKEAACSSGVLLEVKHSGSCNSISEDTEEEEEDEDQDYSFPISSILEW
Assay: follistatin binders on small-molecule microarrays, primary screen, biochemical, small-molecule microarray, 635/667 nm fluorescence (AID 1132)
Settings: FST binding, 635 nm fluorescence, higher = more signal
measurement.label: composite z-score
One number for each entry.

>>> recorded_measurement("CO[C@@H]1[C@H](O)CO[C@H]1C=Cc1ccccc1")
0.251
>>> recorded_measurement("CC(=O)OC[C@H]1O[C@H](CC=NOC(C)CN2CCCCc3nc(C)c(C)cc32)C=C[C@@H]1OC(C)=O (stereo partly drawn)")
1.23
>>> recorded_measurement("CCN1C(=O)[C@H]2[C@H]3[C@H](O)[C@H](O)CC(=NOCC=C(C)CCC=C(C)C)[C@@H]3CC[C@H]2C1=O")
1.31
>>> recorded_measurement("CC(CCN1CCCCc2nc(C)c(C)cc21)=NO[C@H](C)c1cn([C@@H]2COC[C@H]2O)nn1")
1.26
>>> recorded_measurement("O=C1C=C[C@@H](O)[C@@H]2[C@@H]3C(=O)N(Cc4ccc5c(c4)OCO5)C(=O)[C@@H]3CC[C@@H]12")
0.382
>>> recorded_measurement("Cc1ccc(S(=O)(=O)N[C@@H]2COC(=O)CC=C[C@@H](C)[C@H](NS(=O)(=O)c3ccc(C)cc3)COC(=O)[C@H](C)NC(=O)CC=C[C@H]2C)cc1")
0.72
>>> recorded_measurement("C=CC[C@@H]1C=C[C@H](ON=CC[C@@H]2C=C[C@H](OC(C)=O)[C@@H](COC(C)=O)O2)[C@@H](CO)O1")
0.538

API: the following record is the query input.
Return composite z-score measured with Follistatin (Homo sapiens) (UniProt P19883) given this compound: C[C@@H](c1ccccc1)N1C(=O)[C@H]2[C@H]3[C@H](O)[C@H](O)CC(=NOCc4ccccc4)[C@@H]3CC[C@H]2C1=O
-0.7

---

Test: P. aeruginosa biofilm formation inhibitors, primary screen, strain PAO1, LB-PBS medium, absorbance 600 nm (AID 1176); note: test concentration not given here
Details: P. aeruginosa PAO1 growth/biofilm, A600, 12 h; higher = more signal
Kindly note that classification relies on z-score with these boundaries: L = under -0.3, M = from -0.3 up to 0.3, H = 0.3 and over

# count of solved cases: 5
>>> assigned_category("CC(CCN1CCCCc2nc(C)c(C)cc21)=NOC[C@@H](O)[C@H]1O[C@@H]2OC(C)(C)O[C@@H]2[C@H]1O")
"H"
>>> assigned_category("CC(CCN1CCc2nc(-c3ccccc3)c(-c3ccccc3)cc2C1)=NO[C@@H](C)c1cc(-c2c(C)cc(C)cc2C)no1")
"L"
>>> assigned_category("COC(=O)CC=C[C@@H](C)[C@@H](C=NOC[C@@H](O)COCc1ccco1)NS(=O)(=O)c1ccc(C)cc1")
"L"
>>> assigned_category("CCOC(=O)CCN1C(=O)[C@H]2[C@H]3[C@H](O)[C@H](O)CC(=NO[C@@H]4O[C@H](CO)[C@@H](O)[C@H](O)[C@H]4O)[C@@H]3CC[C@H]2C1=O")
"H"
>>> assigned_category("CC1(C)O[C@H]2OC([C@H](O)CON3C(=O)c4ccccc4C3=O)[C@H](O)[C@H]2O1 (stereo not given in full)")
"M"

Where would COc1ccc(O[C@H]2C=C[C@@H](c3ccccc3)O[C@@H]2COC(=O)NCc2cccc3ccccc23)cc1 land among the classes by reported z-score?
H

Would you mind doing CC(=O)OC[C@H]1O[C@H](CC=NO[C@H](C)c2cn([C@@H]3COC[C@H]3O)nn2)C=C[C@@H]1OC(C)=O as well?
H

Would you mind doing CCN1C(=O)[C@H]2[C@H]3[C@H](O)[C@H](O)CC(=NOC(C)CN4CCCc5nc(C)c(C)cc54)[C@@H]3CC[C@H]2C1=O (stereo not given in full) as well?
M

Would you mind doing CN1CCc2nc(-c3ccccc3)c(-c3ccccc3)cc2C1 as well?
L

Would you mind doing CCN1C(=O)[C@H]2[C@H]3[C@H](O)[C@H](O)CC(=NO[C@@H](C)c4cc(-c5c(C)cc(C)cc5C)no4)[C@@H]3CC[C@H]2C1=O as well?
M

Would you mind doing CC(=O)OC[C@H]1O[C@H](CC=NO[C@@H](C)c2cn([C@H](CO)Cc3ccccc3)nn2)C=C[C@@H]1OC(C)=O as well?
L
